- ASSAYED SYSTEM: UniProtKB P56817
- EXPERIMENTAL PROTOCOL: In vitro enzymatic BACE FRET (fluorescence resonance energy transfer) assay
- Format: biochemical
- CONDITION DETAILS: average IC50, enzyme assay; read-out: BACE 1 FRET assay
ENDPOINT NAME: pIC50
Scale for pIC50: -log10 of concentration given in mol/L; no unit attached.

-- ask Enter pIC50 (test system UniProtKB P56817) for NC1=N[C@@]2(CS1)c1cc(-c3cccnc3F)ccc1Oc1cnc([C@H]3CCCOC3)cc12 [Example 932]
-- reply 7.79

-- ask Enter pIC50 (test system UniProtKB P56817) for CC1(C#Cc2cc3c(cc2OC(F)(F)F)Oc2ccc(-c4cccnc4F)cc2[C@]32COC(N)=N2)COC1 [Example 987]
-- reply 5.33

-- ask Enter pIC50 (test system UniProtKB P56817) for NC1=N[C@@]2(CS1)c1cc(-c3cnccc3F)ccc1Oc1ncc(-c3cccnc3F)cc12 [Example 788]
-- reply 8.30

-- ask Enter pIC50 (test system UniProtKB P56817) for CC1(C#Cc2cnc3c(c2)[C@@]2(COC(N)=N2)c2cc(-c4cncc(Cl)c4)c(F)cc2O3)COC1 [Example 625]
-- reply 6.05

-- ask Enter pIC50 (test system UniProtKB P56817) for CC1(C)C[C@@H](c2cnc3c(c2)[C@]2(COC(N)=N2)c2cc(-c4cccc(Cl)c4)ccc2O3)CCO1 [Example 474]
-- reply 9.05

-- ask Enter pIC50 (test system UniProtKB P56817) for NC1=N[C@@]2(CS1)c1cc(-c3cnccc3F)ccc1Oc1ncc(-c3cccnc3)cc12 [Example 769]
-- reply 8.64

-- ask Enter pIC50 (test system UniProtKB P56817) for C[C@@H]1CN(c2cc(F)c3c(c2)[C@]2(COC(N)=N2)c2cc(-c4cccnc4F)ccc2O3)C[C@H](C)O1 [Example 303]
-- reply 8.70

---

Please go through the items and note down their pIC50.
- ASSAYED SYSTEM: Beta Secretase enzyme (BACE) (Homo sapiens, UniProt P56817)
- Sequence (P56817 46-501, species assumed): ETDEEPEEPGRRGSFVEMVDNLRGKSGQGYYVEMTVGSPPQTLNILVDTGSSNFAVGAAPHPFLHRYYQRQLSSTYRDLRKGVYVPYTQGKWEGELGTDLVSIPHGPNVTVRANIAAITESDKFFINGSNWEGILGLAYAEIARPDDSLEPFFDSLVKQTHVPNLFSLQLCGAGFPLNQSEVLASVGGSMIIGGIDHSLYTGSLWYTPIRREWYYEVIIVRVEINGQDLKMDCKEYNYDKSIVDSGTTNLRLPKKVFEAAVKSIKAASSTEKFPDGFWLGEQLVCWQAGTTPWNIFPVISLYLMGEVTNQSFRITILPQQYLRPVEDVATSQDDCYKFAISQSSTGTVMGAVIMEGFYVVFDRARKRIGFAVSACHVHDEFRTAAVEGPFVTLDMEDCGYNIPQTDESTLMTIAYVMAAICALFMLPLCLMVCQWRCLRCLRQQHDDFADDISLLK
- EXPERIMENTAL PROTOCOL: In vitro enzymatic BACE FRET (fluorescence resonance energy transfer) assay
- Format: biochemical
- CONDITION DETAILS: average IC50, enzyme assay; read-out: BACE 1 FRET assay
Scale for pIC50: -log10 of concentration given in mol/L; no unit attached.

-- ask Enter pIC50 (test system Beta Secretase enzyme (BACE) (Homo sapiens, UniProt P56817)) for "NC1=N[C@]2(CS1)c1cc(-c3cccnc3)c(F)cc1Oc1c(F)cc(C3=CCOCC3)cc12"
-- reply 6.21

-- ask Enter pIC50 (test system Beta Secretase enzyme (BACE) (Homo sapiens, UniProt P56817)) for "NC1=N[C@]2(CO1)c1cc(-c3cccnc3F)ccc1Oc1c2cc(Br)nc1F"
-- reply 5.68

-- ask Enter pIC50 (test system Beta Secretase enzyme (BACE) (Homo sapiens, UniProt P56817)) for "NC1=N[C@@]2(CO1)c1cc(C#CC3CC3)ccc1Oc1ncc(N3CCC(F)(F)CC3)cc12"
-- reply 8.24

-- ask Enter pIC50 (test system Beta Secretase enzyme (BACE) (Homo sapiens, UniProt P56817)) for "CC(C)(F)COc1cc(F)c2c(c1)[C@]1(COC(N)=N1)c1cc(-c3cncnc3)c(F)cc1O2"
-- reply 9.10

Cited source: patent US8883782B2
